The reader will find reported melting point values listed item by item below.

record-smiles | melting point [°C]
CCn1ncnc1COc1nn2c(-c3cc(F)ccc3F)nnc(C)c2c1C(C)(C)C | 109
Cc1nnc(-c2ccccc2F)n2nc(OCc3ncnn3C)c(C3CCCC3)c12 | 123
CCn1ncnc1COc1nn2c(-c3ccccc3)nnc(C)c2c1C1CCCC1 | 112

====

record-smiles | melting point
CCn1ncnc1COc1nn2c(-c3ccccc3F)nnc(C)c2c1C1CCCC1 | 105 °C
Cc1nnc(-c2ccccc2F)n2nc(OCc3ncn(C)n3)c(-c3ccsc3)c12 | 214 to 217 °C
Cc1nnc(-c2ccccc2F)n2nc(OCc3ncnn3C)c(-c3ccoc3)c12 | 150 to 153 °C
Cc1nnc(-c2ccccc2)n2nc(OCc3ncnn3C)c(C3CCCC3)c12 | 159 °C
Cc1nnc(-c2ccccc2F)n2nc(OCc3ncnn3C)c(-c3ccsc3)c12 | 124 to 129 °C

Source of measurements: patent US6872720B2
